biological target: human c-Met (HGFR), full length, on the cell surface (human, UniProt P08581 25-1390); test: cell-based or functional assay
Sequence (P08581 25-1390 limits assumed): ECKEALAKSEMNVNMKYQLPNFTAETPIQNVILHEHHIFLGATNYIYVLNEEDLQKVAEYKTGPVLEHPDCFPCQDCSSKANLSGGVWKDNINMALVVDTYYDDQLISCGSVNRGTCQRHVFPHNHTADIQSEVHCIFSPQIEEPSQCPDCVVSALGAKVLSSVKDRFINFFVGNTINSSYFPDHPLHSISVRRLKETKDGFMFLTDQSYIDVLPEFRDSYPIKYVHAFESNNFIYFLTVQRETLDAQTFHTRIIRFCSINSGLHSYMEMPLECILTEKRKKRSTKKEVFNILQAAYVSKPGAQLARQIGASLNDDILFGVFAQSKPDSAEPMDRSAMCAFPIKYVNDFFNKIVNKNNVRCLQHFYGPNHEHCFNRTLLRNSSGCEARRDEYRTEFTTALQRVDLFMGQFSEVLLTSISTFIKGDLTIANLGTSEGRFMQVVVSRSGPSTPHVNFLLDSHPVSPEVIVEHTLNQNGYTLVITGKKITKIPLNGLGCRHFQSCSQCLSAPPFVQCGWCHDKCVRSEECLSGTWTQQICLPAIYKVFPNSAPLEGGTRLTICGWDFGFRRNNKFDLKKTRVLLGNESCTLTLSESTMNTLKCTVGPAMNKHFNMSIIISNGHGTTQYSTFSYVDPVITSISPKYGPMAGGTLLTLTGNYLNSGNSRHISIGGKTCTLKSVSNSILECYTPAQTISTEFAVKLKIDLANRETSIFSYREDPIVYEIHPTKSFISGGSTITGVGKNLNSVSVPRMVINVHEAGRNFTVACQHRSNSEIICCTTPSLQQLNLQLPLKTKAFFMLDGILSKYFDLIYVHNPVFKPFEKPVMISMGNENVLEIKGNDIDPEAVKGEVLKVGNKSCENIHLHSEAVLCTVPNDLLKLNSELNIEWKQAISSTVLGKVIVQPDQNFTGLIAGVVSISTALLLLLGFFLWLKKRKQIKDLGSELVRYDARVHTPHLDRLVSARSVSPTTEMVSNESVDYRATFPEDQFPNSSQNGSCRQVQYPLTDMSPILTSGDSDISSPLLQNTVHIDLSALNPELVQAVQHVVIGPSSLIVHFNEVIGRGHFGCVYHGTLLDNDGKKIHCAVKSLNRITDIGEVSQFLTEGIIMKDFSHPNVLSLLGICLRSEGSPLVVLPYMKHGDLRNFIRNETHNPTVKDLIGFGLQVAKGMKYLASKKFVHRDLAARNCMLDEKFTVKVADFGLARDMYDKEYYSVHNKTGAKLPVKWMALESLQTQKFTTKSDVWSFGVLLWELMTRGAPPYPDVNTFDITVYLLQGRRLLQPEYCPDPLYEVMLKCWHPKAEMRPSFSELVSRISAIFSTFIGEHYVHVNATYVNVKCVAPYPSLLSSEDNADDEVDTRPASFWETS
measured_endpoint: IC50, in vitro cytotoxicity, PC-3, +HGF (nM)
Return type: number; implicit unit nM.

Q. Output IC50, in vitro cytotoxicity, PC-3, +HGF of ADC3 (antibody, human IgG1, kappa, V domains shown, vc-seco-DUBA linker-drug on the engineered cysteine at HC position 41 (Kabat); DAR 1.1) VH: QIQLQQSGPELVKPGASVKISCKASGYTFTDYYLNWVKQRCGQGLEWIGLIFPGNDKTEYSEKFKGKATLTVDTSSSTAYIQLSRLSSEDSAIYFCSGGDYGGFVYWGQGTLVTVSS VL: DIQMTQSPTSLSASVGETVTITCGASENIYGALNWYQRKQGKSPQLLIYGATNLADGMSSRFSGSGSGRQFSLKINSLHPDDVATYFCQNVLSSPLTFGSGTKLEIKR
A. 0.224
